For each of the compounds below, state its phenotypically active.
test system: A549-TP53BP1-CLTA; test: phenotypically active (imaging signature differs from DMSO and reproducible) at any of 0.3-9 uM (binary (1 = active, 0 = inactive)); higher = active; conditions: treatment time: 24 h
Numbers only.

compound	system.name	result.type	recorded.value
O=C1NC(=O)/C(=C\c2cccc(C(F)(F)F)c2)S1	A549-TP53BP1-CLTA	phenotypically active	0
C[C@@H](Oc1cc(-n2cnc3ccc(CN4CCN(C)CC4)cc32)sc1C(N)=O)c1ccccc1C(F)(F)F	A549-TP53BP1-CLTA	phenotypically active	1
COC1=C(O)C(=O)c2ccccc2C1=O [2-hydroxy-3-methoxy-naphtoquinone]	A549-TP53BP1-CLTA	phenotypically active	0
COc1ccnc(CS(=O)c2nc3cc(OC(F)F)ccc3[nH]2)c1OC (stereo unspecified)	A549-TP53BP1-CLTA	phenotypically active	0

Report phenotypically active for every entry below.
1. CCN(CCO)CCCC(C)Nc1ccnc2cc(Cl)ccc12 (stereo unspecified) [hydroxychloroquine]
2. CC(CCc1ccccc1)NCC(O)c1ccc(O)c(C(N)=O)c1 (stereo unspecified)

1: 0; 2: 0

Report phenotypically active for every entry below.
1. CCC(C)(C)C(=O)O[C@H]1C[C@@H](C)C=C2C=C[C@H](C)[C@H](CC[C@@H]3C[C@@H](O)CC(=O)O3)[C@H]21
2. O=NN(CCCl)C(=O)NCCCl
3. O=P(O)(O)C(O)(Cc1cccnc1)P(=O)(O)O [risedronate]
4. Cn1cnc2c(NCc3ccccc3)nc(NCCO)nc21

1. 1
2. 0
3. 0
4. 0

###

tested on: WPMY1-CANX-COX4; assay: phenotypically active (imaging signature differs from DMSO and reproducible) at any of 0.3-9 uM (binary (1 = active, 0 = inactive)); higher = active; conditions: treatment time: 24 h
Please state which outcome applies, choosing from 1 = active, 0 = inactive

Answered examples (4):
> print(dat)
                                   molecule  group.label
1  CC(=O)NCC(=O)N1[C@@H]2CC[C@H]1c1ccc(Nc3ncc(C(F)(F)F)c(NC4CCC4)n3)cc12            1
2  CC(C)[C@](O)(c1ccc2cc(OC(F)F)c(OC(F)F)cc2c1)c1c[nH]nn1            0
3  O=C(CCCCCN1C(=O)c2cccc3cccc(c23)C1=O)NO [Scriptaid]            1
4  C=C1CC[C@@H]2[C@](C)(CO)[C@H](O)CC[C@@]2(C)[C@@H]1C/C=C1/C(=O)OC[C@H]1O [Andrographolide]            0

Now look at this one.
Look up the recorded call for COc1cc(OC)c2c(=O)[nH]c(-c3cc(C)c(OCCO)c(C)c3)nc2c1 [apabetalone] in this test.
0

###

system: A549-TUBA1B-RELA; experiment: lowest phenotypically active concentration; higher = less potent; conditions: treatment time: 24 h
For each of the molecules below, state its lowest phenotypically active concentration.
Numbers only, in µM.

> print(dat)
                                   molecule  measurement.units  recorded.value
1  C[C@H]1Oc2cc(cnc2N)-c2c(nn(C)c2C#N)CN(C)C(=O)c2ccc(F)cc21                 µM               1
2  CS(=O)(=O)c1cccc(CNc2nc(Nc3ccc4c(c3)CCC(=O)N4)ncc2C(F)(F)F)c1                 µM               3

Report lowest phenotypically active concentration for every entry below.
1. COc1ccc(S(=O)(=O)ON=C2C=C(C)C(=O)C(C)=C2)cc1
2. O=C1NCCN1CCN1CCC(c2cn(-c3ccc(F)cc3)c3ccc(Cl)cc23)CC1 [sertindole]
3. Oc1ccc(-c2nc(-c3ccc(F)cc3)c(-c3ccncc3)[nH]2)cc1
4. O=C(CCCCCCC(=O)Nc1cccnc1)NO [Pyroxamide]
5. CCOC(=O)CCNc1cc(N2CCc3ccccc3CC2)nc(-c2ccccn2)n1

9
3
3
9
3

###

test system: WPMY1-CANX-COX4; assay: lowest phenotypically active concentration; higher = less potent; conditions: treatment time: 24 h
result.type: lowest phenotypically active concentration (µM)
Answers are plain numbers, in µM.

The cases that follow already have their lowest phenotypically active concentration on record.
molecule	system.name	recorded.value
O=C1Cc2c([nH]c3ccc(Br)cc23)-c2ccccc2N1	WPMY1-CANX-COX4	1
CCC(=O)N1CCOc2c(cc(-c3ccc(OC)c(OC)c3)cc2OC[C@H]2CCCN(C)C2)C1	WPMY1-CANX-COX4	9

Report lowest phenotypically active concentration for every entry below.
1. O=C(CCCc1ccc(-c2ccccc2F)cc1)Nc1ccc(O)cc1
2. CS(=O)(=O)c1cccc(CNc2nc(Nc3ccc4c(c3)CCC(=O)N4)ncc2C(F)(F)F)c1
3. COc1cc(C(=O)N2CCC(N3CCN(C)CC3)CC2)ccc1Nc1ncc2c(n1)N(C)c1ccccc1C(=O)N2C
4. c1cc(-c2cc(C3CCNCC3)[nH]n2)ccn1
5. Cn1cc(-c2cnc3ccc4ccc(CS(=O)(=O)NCc5ccccn5)cc4c(=O)c3c2)cn1
6. CNc1nc(-c2ccc3c(N)n[nH]c3c2)cc(N2C[C@@H](C(=O)NC3CCCCC3)CC[C@H]2C)n1

1: 1; 2: 3; 3: 3; 4: 9; 5: 3; 6: 1

Report lowest phenotypically active concentration for every entry below.
1. CC(C)c1c(C(=O)Nc2ccccc2)c(-c2ccccc2)c(-c2ccc(F)cc2)n1CC[C@@H](O)C[C@@H](O)CC(=O)O
2. O=C1NC(=O)[C@@H](c2cn3c4c(cccc24)CCC3)[C@@H]1c1c[nH]c2ccccc12 [tivantinib]
3. CC(=O)O[C@H]1C(=O)[C@@]2(C)[C@H]([C@H](OC(=O)c3ccccc3)[C@]3(O)C[C@H](OC(=O)[C@H](O)[C@@H](NC(=O)c4ccccc4)c4ccccc4)C(C)=C1C3(C)C)[C@]1(OC(C)=O)CO[C@@H]1C[C@@H]2O
4. N#C/C(=C/c1ccc(-c2cc(Cl)ccc2Cl)o1)C(=O)Nc1cccc2ncccc12
5. OC[C@H]1O[C@@H](n2cnc3c(NCc4ccco4)ncnc32)[C@H](O)[C@@H]1O [Kinetin riboside]

1. 3
2. 1
3. 9
4. 9
5. 3

###

test system: A549-CANX-COX4; assay: phenotypically active (imaging signature differs from DMSO and reproducible) at any of 0.3-9 uM (binary (1 = active, 0 = inactive)); higher = active; conditions: treatment time: 24 h
Structures can show the parent of a compound that is named as a salt.
Please state which outcome applies, choosing from label 1 (active), label 0 (inactive)

Answered examples (3):
> print(dat)
                                   molecule  group.label
1    CN(C)CCCN1c2ccccc2Sc2ccc(C(F)(F)F)cc21      label 0
2  COc1ccc(-c2noc(CSc3nnc(C)n3-c3ccc(OC)cc3)n2)cc1      label 0
3  COc1ccc2c(c1OC)C(=O)O[C@@H]2[C@H]1c2c(cc3c(c2OC)OCO3)CCN1C [Noscapine hydrochloride]      label 0

Now look at this one.
Look up the recorded call for CN1CCC(=C2c3ccccc3CC(=O)c3sccc32)CC1 in this test.
label 1

###

test system: WPMY1-CANX-COX4; assay: phenotypically active (imaging signature differs from DMSO and reproducible) at any of 0.3-9 uM (binary (1 = active, 0 = inactive)); higher = active; conditions: treatment time: 24 h
Where a name gives a salt, the structure may show the parent alone.
result.type: phenotypically active
Give bare numbers.

The cases that follow already have their phenotypically active on record.
> print(dat)
                                   molecule      system.name  recorded.value
1   O=C(O)C(CO)c1ccccc1 (centres undefined)  WPMY1-CANX-COX4               0
2  COc1ccc(CCNCc2ccc(OCc3ccc(Cl)nc3)c(OC)c2)cc1OC [SBE 13 hydrochloride]  WPMY1-CANX-COX4               1
3  O=C(CCCCCCC(=O)Nc1ccc([C@H]2O[C@@H](CSc3nc(-c4ccccc4)c(-c4ccccc4)o3)C[C@@H](c3ccc(CO)cc3)O2)cc1)NO  WPMY1-CANX-COX4               1

Report phenotypically active for every entry below.
1. COc1ccc2c3c1O[C@H]1C[C@@H](O)C=C[C@@]31CCN(C)C2
2. COC(=O)c1c(C)cc(OC(=O)c2c(C)cc(O)c(C=O)c2O)c(C)c1O
3. CCN(Cc1ccncc1)C(=O)C(CO)c1ccccc1 (centres undefined) [tropicamide]
4. CN(C)CC(O)Cn1c2ccc(Br)cc2c2cc(Br)ccc21 (centres undefined)
5. CC(C)(C)c1cc(NC(=O)Nc2ccc(-c3cn4c(n3)sc3cc(OCCN5CCOCC5)ccc34)cc2)no1

1. 0
2. 0
3. 0
4. 1
5. 1

Entry COc1ccc2[nH]c(C(=O)c3ccccc3)cc2c1 has what phenotypically active?
1
